- System: gum arabic
- assay-protocol: VHH binding to gum arabic in ELISA
- Design: species or system acacia tree
- measurement-setup: Table 2; gum arabic coat; VHH 3 μg/ml
Binary classification by absorbance at 405 nm, with 0.8 as an inclusive lower bound for met; all other cases are not met.

[
  {
    "molecule": "VHH 7D2 (VHH, Hexahistidine-tagged) VHH: QVQLQESGGGLVQPGRSLKVACAAAGFSLRYYGIGWFRQAPGKEREAVSCTSANDGSTYYRDSVRGRFTISRDDGKNTVYLQMNRLKPEDTAVYYCATTDCDATSWGTWINYYGQGTQVTVSS",
    "group": "not met"
  },
  {
    "molecule": "VHH 5D4 (VHH, Hexahistidine-tagged) VHH: QVQLQESGGGLVQPGGSLRLSCAASGFDMRRFGIGWFRQVAGKEREGVSCSNVHDGTTYYTNDVKGRFTIVRDNTKNMLYLQMNKLRPEDTAVYSCATTDCEATAWGTYRGYFGQGTQVTVSS",
    "group": "not met"
  },
  {
    "molecule": "VHH 5C4 (VHH, Hexahistidine-tagged) VHH: QVQLQESGGGLVQPGGSLRLSCAASGFSLRYFGIGWFRQVAGKEREPVSCSNVRDGNTYYADSVKGRFTISRDNVRNTLYLQMNSLKPEDTAVYSCATTDCEATTWGTYRGYFGQGTQVTVSS",
    "group": "met"
  }
]

Input line: absorbance at 405 nm >= 0.8 for VHH 5G5 (VHH, Hexahistidine-tagged) VHH: QVQLQESGGGLVQPGGSLRLSCAASGFSLRYFGIGWFRQAAGKEREGISCSNVRDGNTYYADSVKGRFTISRDNVRNMLYLQMNNLKPDDTAVYSCATTDCEATTWGTYRGYFGQGTQVTVSS ?
Output line: not met

Input line: Same for VHH 3E6 (VHH, also called Monovalent VHH 3E6) VHH: QVQLQESGGGLVQPGGTLSLSCAASGFNVRWYGMGWFRQAPGKEREGVACISALQETTAYADSVKGRFTLSRDNPKNTLSLQMNNLQPEDTGVYYCATTDCDDSSRMTYTSYLGQGTQVTVSS
Output line: met
